Below are IC50 values measured for PLK1(h) (Homo sapiens, UniProt P53350).
Field: numeric (µM). Do not append units.

Some solved cases for reference:
{"Compound": "NC(=O)c1nn(-c2ccnc(Nc3ccccc3)c2)cc1OCc1ccccc1C(F)(F)F [Compound 13b]", "IC50, µM": 0.847}
{"Compound": "NC(=O)c1nn(-c2ccnc(Nc3ccccc3)c2)cc1OCc1ccccc1 [Compound 13a]", "IC50, µM": 9.89}
{"Compound": "COc1ccccc1Nc1cc(-n2cc(OCc3ccccc3C(F)(F)F)c(C(N)=O)n2)ccn1 [Compound 14b]", "IC50, µM": 1.31}

Now look at this one.
Form field - read-out: IC50; system: PLK1(h) (Homo sapiens, UniProt P53350); submitted item: COc1ccccc1Nc1cc(-n2cc(OCc3ccccc3)c(C(N)=O)n2)ccn1 [Compound 14a]
Sequence (P53350 whole entry): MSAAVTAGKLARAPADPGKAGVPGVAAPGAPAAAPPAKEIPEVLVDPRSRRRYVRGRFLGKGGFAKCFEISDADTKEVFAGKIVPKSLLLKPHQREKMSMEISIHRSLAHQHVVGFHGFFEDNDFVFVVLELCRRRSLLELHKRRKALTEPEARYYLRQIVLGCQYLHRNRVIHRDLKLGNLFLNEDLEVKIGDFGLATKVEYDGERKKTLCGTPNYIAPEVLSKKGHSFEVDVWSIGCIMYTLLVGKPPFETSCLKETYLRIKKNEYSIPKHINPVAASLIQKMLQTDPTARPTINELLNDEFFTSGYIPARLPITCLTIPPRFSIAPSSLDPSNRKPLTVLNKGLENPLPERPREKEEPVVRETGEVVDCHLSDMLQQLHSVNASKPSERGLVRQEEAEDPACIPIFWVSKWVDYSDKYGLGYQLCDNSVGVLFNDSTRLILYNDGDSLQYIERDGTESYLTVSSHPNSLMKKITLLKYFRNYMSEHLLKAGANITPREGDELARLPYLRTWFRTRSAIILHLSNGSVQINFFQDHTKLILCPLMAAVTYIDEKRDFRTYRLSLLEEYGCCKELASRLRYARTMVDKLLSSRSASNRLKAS
1.02

Where do the numbers come from? From patent US12552768B2.
